- Tested on: Klebsiella aerogenes DSM 30053
- procedure-summary: growth (OD595) fold change vs plate DMSO controls (fold change (ratio)); higher = more growth
- measurement-setup: incubation time: 27 h, anaerobic, 37 °C
Where a name gives a salt, the structure may show the parent alone.
Reported growth by item:

[
  {
    "compound": "COc1cc(NS(=O)(=O)c2ccc(N)cc2)nc(OC)n1 [Sulfadimethoxine] (20 µM)",
    "study-target": "Klebsiella aerogenes DSM 30053",
    "growth": 1.1
  },
  {
    "compound": "CN(C)c1ccc2nc3ccc(=[N+](C)C)cc-3sc2c1 [Methylene blue] (20 µM)",
    "study-target": "Klebsiella aerogenes DSM 30053",
    "growth": 0.42
  },
  {
    "compound": "CN(C)CC/C=C1/c2ccccc2Sc2ccc(Cl)cc21 [Chlorprothixene hydrochloride] (20 µM)",
    "study-target": "Klebsiella aerogenes DSM 30053",
    "growth": 1.01
  },
  {
    "compound": "CCC(C)(C)c1ccc(CC(C)CN2C[C@@H](C)O[C@@H](C)C2)cc1 (stereo partly drawn) [Amorolfine hydrochloride] (20 µM)",
    "study-target": "Klebsiella aerogenes DSM 30053",
    "growth": 1.01
  },
  {
    "compound": "COC(=O)[C@H](Cc1ccccc1)NC(=O)[C@H](CC(=O)O)NCCCc1ccc(OC)c(O)c1 [Advantame] (50 µM)",
    "study-target": "Klebsiella aerogenes DSM 30053",
    "growth": 0.999
  }
]

Please state recorded growth (tested on Klebsiella aerogenes DSM 30053) of CCC(Cc1c(I)cc(I)c(N)c1I)C(=O)O (stereo not drawn) [Iopanoic acid] (20 µM) 1

Please state recorded growth (tested on Klebsiella aerogenes DSM 30053) of O=c1oc2cc(O)ccc2s1 [Tioxolone] (20 µM) 0.979

Please state recorded growth (tested on Klebsiella aerogenes DSM 30053) of CCN(CC)CCCC(C)Nc1ccnc2cc(Cl)ccc12 (stereo not drawn) [Chloroquine diphosphate] (20 µM) 0.996

----------
- Tested on: Clostridium sporogenes DSM 1664
- procedure-summary: fold change of Tryptamine concentration vs plate DMSO controls (fold change (ratio)); higher = more amine produced, active = hit call of the paper (significant change in both replicates, either direction)
- measurement-setup: incubation time: 27 h, anaerobic, 37 °C
Structures can show the parent of a compound that is named as a salt.
measured-metric: fold change of Tryptamine concentration
In your answer, state the number alone without any accompanying words.

[
  {
    "compound": "NC(=O)N/N=C/c1ccc([N+](=O)[O-])o1 [Nitrofural] (20 µM)",
    "study-target": "Clostridium sporogenes DSM 1664",
    "test-value": 0.906
  },
  {
    "compound": "C[C@@H]1C[C@H]2[C@@H]3C[C@H](F)C4=CC(=O)C=C[C@]4(C)[C@@]3(F)[C@@H](O)C[C@]2(C)[C@@]1(O)C(=O)COC(=O)C(C)(C)C [Flumethasone pivalate] (20 µM)",
    "study-target": "Clostridium sporogenes DSM 1664",
    "test-value": 1
  },
  {
    "compound": "O=C(O)c1cc(=O)c2c(OCC(O)COc3cccc4oc(C(=O)O)cc(=O)c34)cccc2o1 [Cromolyn disodium salt] (20 µM)",
    "study-target": "Clostridium sporogenes DSM 1664",
    "test-value": 0.983
  },
  {
    "compound": "OC[C@H]1O[C@H](O[C@H]2[C@H](O)[C@@H](O)[C@H](O)O[C@@H]2CO)[C@H](O)[C@@H](O)[C@@H]1O [Maltose] (50 µM)",
    "study-target": "Clostridium sporogenes DSM 1664",
    "test-value": 0.991
  }
]

Moving on to another compound below.
Recorded fold change of Tryptamine concentration for Cn1nnc2c(C(N)=O)ncn2c1=O [Temozolomide] (20 µM) , please? 0.977
